Each recorded value in this set is attributed to patent US11174253B2.

- Tested on: Hep3B hepatocellular carcinoma cell line
- assay.comment: MTS cell viability assay (NCI-60 methodology), GI50/LC50, Hep3B
- Type: cell-based
- condition.summary: Homo sapiens, 48 h, Hep3B cells, 2 days incubation with compound
measure.name: GI50 (nM)
Dear colleague, please return just the value in nM, with no unit written.

Recorded results for 2 compounds are shown here.
compound: CC(C)Oc1ccc(-c2nc(NC(=O)c3ccc([N+](=O)[O-])s3)sc2Oc2ccccc2)cc1 [Compound 5-10]
result.units: nM
GI50: 2530
--
compound: CCOc1ccc(-c2nnc(NC(=O)Cc3ccc4nc(N)sc4c3)s2)c(OCCOC)c1 [Compound 1-32]
result.units: nM
GI50: 170

Could you now consider this next compound?
Ask: Which GI50 reading was recorded for the compound CC(C)(C)c1ccc(-c2nc(NC(=O)c3ccc([N+](=O)[O-])s3)sc2-c2cc(F)cc(F)c2)cc1 [Compound 6-38] ?
Result: 630
